- PROTOCOL TEXT: DRUGMATRIX: Phosphodiesterase PDE3 enzyme inhibition (substrate: [3H]cAMP + cAMP)
- Assay type: tissue-based, Homo sapiens
- CONDITION CONTEXT: platelet; Not Active = under 50% inhibition at 10 µM; read-out: IC50
READOUT KIND: IC50 (nM)

INPUT SMILES	READOUT KIND	QUANTITATIVE READOUT
Oc1c(Cl)cc(Cl)c(Cl)c1Cc1c(O)c(Cl)cc(Cl)c1Cl	IC50	1850

----------
- PROTOCOL TEXT: DRUGMATRIX: ATPase, Na+/K+ enzyme inhibition (substrate: ATP)
- Assay type: tissue-based, Sus scrofa, Heart
- CONDITION CONTEXT: Not Active = under 50% inhibition at 10 µM

COMPOUND	IC50
COc1ccc(C2C(=O)c3ccccc3C2=O)cc1 [ANISINDIONE]	Not Active
O=C1O[C@H]([C@@H](O)CO)C(O)=C1O [ASCORBIC ACID]	Not Active
CCC(=O)O[C@]1(C(=O)CCl)[C@@H](C)C[C@H]2[C@@H]3CCC4=CC(=O)C=C[C@]4(C)[C@@]3(F)[C@@H](O)C[C@@]21C [CLOBETASOL PROPIONATE]	Not Active

----------
- ASSAYED SYSTEM: Platelet-activating factor receptor (Homo sapiens, UniProt P25105); further: in other assays of this panel Not Active means under 50% inhibition at 10 µM
- Sequence (P25105 whole entry): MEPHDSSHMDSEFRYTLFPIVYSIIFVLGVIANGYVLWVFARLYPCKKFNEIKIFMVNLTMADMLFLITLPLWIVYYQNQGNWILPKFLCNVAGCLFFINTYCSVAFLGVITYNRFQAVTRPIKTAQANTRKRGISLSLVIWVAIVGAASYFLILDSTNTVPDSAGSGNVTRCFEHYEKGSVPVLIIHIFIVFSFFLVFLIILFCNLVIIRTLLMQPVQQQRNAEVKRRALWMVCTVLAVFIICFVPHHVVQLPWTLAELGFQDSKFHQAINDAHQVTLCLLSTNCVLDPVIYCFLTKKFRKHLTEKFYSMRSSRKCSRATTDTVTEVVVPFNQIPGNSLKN
- Format: tissue-based

MOLECULE	ASSAYED SYSTEM	IC50
O=C1Nc2ccc(Cl)cc2C(c2ccccc2Cl)=NC1O (stereo unspecified)	Platelet-activating factor receptor (Homo sapiens, UniProt P25105)	Not Active
COc1cc2nc(N3CCN(C(=O)c4ccco4)CC3)nc(N)c2cc1OC	Platelet-activating factor receptor (Homo sapiens, UniProt P25105)	Not Active
O.O.O.O.O.O.[Cl-].[Cl-].[Sr+2] [STRONTIUM CHLORIDE HEXAHYDRATE]	Platelet-activating factor receptor (Homo sapiens, UniProt P25105)	Not Active
Cc1nnc2n1-c1ccc(Cl)cc1C(c1ccccc1)=NC2	Platelet-activating factor receptor (Homo sapiens, UniProt P25105)	Not Active
O=C1C(CC[S+]([O-])c2ccccc2)C(=O)N(c2ccccc2)N1c1ccccc1 (stereo unspecified)	Platelet-activating factor receptor (Homo sapiens, UniProt P25105)	Not Active
CC(C(=O)O)c1cccc(Oc2ccccc2)c1 (stereo unspecified)	Platelet-activating factor receptor (Homo sapiens, UniProt P25105)	Not Active
CCn1cc(C(=O)O)c(=O)c2cnc(N3CCCC3)nc21	Platelet-activating factor receptor (Homo sapiens, UniProt P25105)	Not Active
COc1cc2nc(N3CCN(C(=O)C4CCCO4)CC3)nc(N)c2cc1OC (stereo unspecified)	Platelet-activating factor receptor (Homo sapiens, UniProt P25105)	Not Active
CCCN(CCC)S(=O)(=O)c1ccc(C(=O)O)cc1	Platelet-activating factor receptor (Homo sapiens, UniProt P25105)	Not Active
O=C(O)c1cn(-c2ccc(F)cc2)c2cc(N3CCNCC3)c(F)cc2c1=O	Platelet-activating factor receptor (Homo sapiens, UniProt P25105)	Not Active
NC1CCN(c2nc3c(cc2F)c(=O)c(C(=O)O)cn3-c2ccc(F)cc2F)C1 (stereo unspecified)	Platelet-activating factor receptor (Homo sapiens, UniProt P25105)	Not Active

----------
- ASSAYED SYSTEM: Kappa-type opioid receptor (Homo sapiens)
- Sequence (P41145 whole entry): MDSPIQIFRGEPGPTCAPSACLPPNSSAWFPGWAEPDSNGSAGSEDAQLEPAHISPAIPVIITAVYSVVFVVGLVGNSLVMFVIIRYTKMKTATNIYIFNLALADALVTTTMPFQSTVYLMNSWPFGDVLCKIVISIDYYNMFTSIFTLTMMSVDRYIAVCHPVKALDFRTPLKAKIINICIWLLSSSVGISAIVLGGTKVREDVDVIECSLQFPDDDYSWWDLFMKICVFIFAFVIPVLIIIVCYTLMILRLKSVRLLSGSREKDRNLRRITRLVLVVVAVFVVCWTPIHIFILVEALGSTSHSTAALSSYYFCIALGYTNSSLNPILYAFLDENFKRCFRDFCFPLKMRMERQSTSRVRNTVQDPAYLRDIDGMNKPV
- PROTOCOL TEXT: DRUGMATRIX: Opiate kappa (OP2, KOP) radioligand binding (ligand: [3H] Diprenorphine)
- Type: cell membranes, HEK293, Membrane
- CONDITION CONTEXT: hek293; Not Active = under 50% inhibition at 10 µM
READOUT KIND: IC50

COMPOUND	RESULT
CCN(CC)CCOc1ccc(/C(=C(/Cl)c2ccccc2)c2ccccc2)cc1	Not Active
COc1cc2nc(N3CCN(C(=O)c4ccco4)CC3)nc(N)c2cc1OC	Not Active
C[n+]1ccccc1/C=N/O.[Cl-] [PRALIDOXIME CHLORIDE]	Not Active
N#Cc1ccc(C(c2ccc(C#N)cc2)n2cncn2)cc1	Not Active
CNCCC(Oc1ccc(C(F)(F)F)cc1)c1ccccc1 (centres undefined)	Not Active
NC(=O)C[S+]([O-])C(c1ccccc1)c1ccccc1 (centres undefined)	Not Active
C[C@H]1O[C@@H](n2cc(F)c(=O)[nH]c2=O)[C@H](O)[C@@H]1O	Not Active
CN(C)[C@@H]1C(O)=C(C(N)=O)C(=O)[C@@]2(O)C(O)=C3C(=O)c4c(O)ccc(Cl)c4[C@@](C)(O)[C@H]3C[C@@H]12	Not Active
CC(C)=CCC/C(C)=C/CO	Not Active
CCN(CC)CCNC(=O)c1cc(S(C)(=O)=O)ccc1OC [TIAPRIDE]	Not Active
CCCCNc1ccc(C(=O)OCCN(C)C)cc1	Not Active
NC(=O)N1C(=O)/C(=C(\O)c2cccs2)c2cc(Cl)ccc21	Not Active
Oc1cccc(O)c1O	Not Active
Cc1c(OCC(F)(F)F)ccnc1C[S+]([O-])c1nc2ccccc2[nH]1 (centres undefined)	Not Active
CCn1cc(C(=O)O)c(=O)c2cnc(N3CCCC3)nc21	Not Active
CCC(=O)O[C@]1(C(=O)CCl)[C@@H](C)C[C@H]2[C@@H]3CCC4=CC(=O)C=C[C@]4(C)[C@@]3(F)[C@@H](O)C[C@@]21C [CLOBETASOL PROPIONATE]	Not Active
CC(C)Oc1ccc2c(=O)c(-c3ccccc3)coc2c1	Not Active
Cc1c(C)c2c(c(C)c1O)CCC(C)(CN1CCN(c3cc(N4CCCC4)nc(N4CCCC4)n3)CC1)O2 (centres undefined)	Not Active
CN1[C@@H]2CC[C@H]1C[C@@H](OC(=O)C(CO)c1ccccc1)C2 (some centres undefined)	Not Active
C[C@H]1C[C@@H]2[C@H]([C@@H](O)C[C@@]3(C)[C@H]2CC[C@]3(O)C(=O)CO)[C@@]2(C)C=CC(=O)C=C12	Not Active
COC(=O)Nc1nc2ccc(C(=O)c3cccs3)cc2[nH]1	Not Active
CC(=O)[C@H]1[C@H](C#N)C[C@H]2[C@@H]3CC=C4C[C@@H](O)CC[C@]4(C)[C@H]3CC[C@@]21C	Not Active
CC(C)(C)NC(=O)[C@H]1CC[C@H]2[C@@H]3CC[C@H]4NC(=O)C=C[C@]4(C)[C@H]3CC[C@]12C [FINASTERIDE]	Not Active
COC1=C(OC)C(=O)C(CCCCCCCCCCO)=C(C)C1=O	Not Active
COc1ccc2c3c1O[C@H]1C[C@@H](O)C=C[C@@]31CCN(C)C2	Not Active
C#C[C@]1(OC(C)=O)CC[C@H]2[C@@H]3CCC4=C[C@@H](OC(C)=O)CC[C@@H]4[C@H]3CC[C@@]21C [ETHYNODIOL DIACETATE]	Not Active
NC1CCN(c2nc3c(cc2F)c(=O)c(C(=O)O)cn3-c2ccc(F)cc2F)C1 (centres undefined)	Not Active
C[C@@H]1C[C@H]2[C@@H]3CCC4=CC(=O)C=C[C@]4(C)[C@@]3(F)[C@@H](O)C[C@]2(C)[C@@]1(O)C(=O)CO	Not Active
CC(C)NCC(O)COc1cccc2[nH]ccc12 (centres undefined)	Not Active
C=CCc1ccc(O)c(OC)c1	Not Active
CCCNCC(O)COc1ccccc1C(=O)CCc1ccccc1 (centres undefined)	Not Active
OC(CCCN1CCCCC1)(c1ccccc1)c1ccccc1	Not Active
CN/C(=N\CCSCc1nc[nH]c1C)NC#N	Not Active
CN(C)CC[C@@H](c1ccc(Cl)cc1)c1ccccn1	Not Active

The measurements presented in this section are drawn from ChEMBL document CHEMBL1909046.
